test: Partition coefficient, logD of the compound in 1,9-decadiene and phosphate buffer at pH 7.4 measured after 30 mins under shaking condition by LC-MS analysis; assay type: physicochemical
# logD hydrocarbon water at 0.5 h listing for each entry below
Measurement Name: logD hydrocarbon water at 0.5 h

>>> recorded_measurement("CC(=O)N1c2ccc(-c3ccc(C(=O)NCCOCCOCC(=O)N[C@H](C(=O)N4C[C@H](O)C[C@H]4C(=O)NCc4ccc(-c5scnc5C)cc4)C(C)(C)C)cc3)cc2[C@H](Nc2ccc(Cl)cc2)C[C@@H]1C")
-0.7
>>> recorded_measurement("Cc1ncsc1-c1ccc(CNC(=O)[C@@H]2C[C@@H](O)CN2C(=O)[C@@H](OC(=O)CCOCCOCCOCCNC(=O)Cc2ccccc2)C(C)(C)C)cc1")
-1.6
>>> recorded_measurement("Cc1ncsc1-c1ccc(CNC(=O)[C@@H]2C[C@@H](O)CN2C(=O)[C@@H](NC(=O)COCCOCCNC(=O)C[C@@H]2N=C(c3ccc(Cl)cc3)c3c(sc(C)c3C)-n3c(C)nnc32)C(C)(C)C)cc1")
-1.1
>>> recorded_measurement("Cc1ncsc1-c1ccc(CNC(=O)[C@@H]2C[C@@H](O)CN2C(=O)[C@@H](NC(=O)COCCOCCOCCOCCOCCOCC(=O)N[C@H](C(=O)N2C[C@H](O)C[C@H]2C(=O)NCc2ccc(-c3scnc3C)cc2)C(C)(C)C)C(C)(C)C)cc1")
-4.3
>>> recorded_measurement("CC(=O)N[C@H](C(=O)N1C[C@H](O)C[C@H]1C(=O)NCc1ccc(-c2scnc2C)cc1)C(C)(C)SCCOCCOCCNC(=O)C[C@@H]1N=C(c2ccc(Cl)cc2)c2c(sc(C)c2C)-n2c(C)nnc21")
-4.3
>>> recorded_measurement("Cc1ncsc1-c1ccc(CNC(=O)[C@@H]2C[C@@H](O)CN2C(=O)[C@@H](NC(=O)COCCOCCOCCNC(=O)C[C@@H]2N=C(c3ccc(Cl)cc3)c3c(sc(C)c3C)-n3c(C)nnc32)C(C)(C)C)cc1")
-1.6
>>> recorded_measurement("Cc1ncsc1-c1ccc(CNC(=O)[C@@H]2C[C@@H](O)CN2C(=O)[C@@H](NC(=O)[C@H](Cc2ccccc2)NC(=O)COCCOCCOCCNC(=O)C[C@@H]2N=C(c3ccc(Cl)cc3)c3c(sc(C)c3C)-n3c(C)nnc32)C(C)(C)C)cc1")
-1.6
>>> recorded_measurement("Cc1ncsc1-c1ccc(CNC(=O)[C@@H]2C[C@@H](O)CN2C(=O)[C@@H](NC(=O)COCCOCCOCCOCC(=O)N[C@H](C(=O)N2C[C@H](O)C[C@H]2C(=O)NCc2ccc(-c3scnc3C)cc2)C(C)(C)C)C(C)(C)C)cc1")
-3.8
>>> recorded_measurement("CC(=O)N1c2ccc(-c3ccc(C(=O)NCCOCCOCCOCCOCC(=O)N[C@H](C(=O)N4C[C@H](O)C[C@H]4C(=O)NCc4ccc(-c5scnc5C)cc4)C(C)(C)C)cc3)cc2[C@H](Nc2ccc(Cl)cc2)C[C@@H]1C")
-0.7
>>> recorded_measurement("CC(=O)N[C@H](C(=O)N1C[C@H](O)C[C@H]1C(=O)NCc1ccc(-c2scnc2C)cc1)C(C)(C)SCCOCCNC(=O)C[C@@H]1N=C(c2ccc(Cl)cc2)c2c(sc(C)c2C)-n2c(C)nnc21")
-3.8
>>> recorded_measurement("CC(=O)N[C@H](C(=O)N1C[C@H](O)C[C@H]1C(=O)NCc1ccc(-c2scnc2C)cc1)C(C)(C)SCCCCNC(=O)C[C@@H]1N=C(c2ccc(Cl)cc2)c2c(sc(C)c2C)-n2c(C)nnc21")
-3.8

meta.source: ChEMBL document CHEMBL4725409
